Molecular target: Axl (Homo sapiens (Human))
Sequence (P30530 26-894): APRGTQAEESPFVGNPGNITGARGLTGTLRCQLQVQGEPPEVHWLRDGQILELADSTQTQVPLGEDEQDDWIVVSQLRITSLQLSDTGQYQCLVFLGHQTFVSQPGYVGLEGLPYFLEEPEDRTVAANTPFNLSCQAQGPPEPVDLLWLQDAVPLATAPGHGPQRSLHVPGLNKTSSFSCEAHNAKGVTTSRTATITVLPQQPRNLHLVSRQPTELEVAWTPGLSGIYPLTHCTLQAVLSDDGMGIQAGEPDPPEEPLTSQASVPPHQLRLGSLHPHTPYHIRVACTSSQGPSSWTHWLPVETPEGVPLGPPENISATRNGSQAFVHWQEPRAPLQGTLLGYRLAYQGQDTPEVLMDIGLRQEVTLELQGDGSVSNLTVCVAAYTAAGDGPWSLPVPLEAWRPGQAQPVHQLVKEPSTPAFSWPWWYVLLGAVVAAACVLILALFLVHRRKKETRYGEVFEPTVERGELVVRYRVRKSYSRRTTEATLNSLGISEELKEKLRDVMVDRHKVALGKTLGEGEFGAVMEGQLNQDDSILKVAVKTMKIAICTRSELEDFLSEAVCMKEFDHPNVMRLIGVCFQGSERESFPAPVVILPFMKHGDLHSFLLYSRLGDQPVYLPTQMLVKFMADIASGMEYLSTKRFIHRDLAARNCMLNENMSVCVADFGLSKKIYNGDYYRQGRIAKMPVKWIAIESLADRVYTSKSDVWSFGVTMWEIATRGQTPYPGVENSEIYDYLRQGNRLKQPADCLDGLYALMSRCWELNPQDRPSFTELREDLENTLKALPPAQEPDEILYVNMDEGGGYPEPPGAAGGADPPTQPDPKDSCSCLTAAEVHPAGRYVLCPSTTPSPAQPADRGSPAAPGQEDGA
Assay: Axl binding assay
Conditions: listed as compound 64
measured.metric: IC50

Please report the recorded IC50 for COc1cc2nccc(Oc3ccc(NC(=O)c4ccco4)cc3)c2cc1OC [Ref3, reference compound] .
≥ 10 µM

---

Target: Axl (Homo sapiens (Human))
Test: Axl binding assay
measured.metric: IC50

> print(dat)
                               given.smiles  measured.metric    result
1  COc1cc2c(Oc3ccc(NC(=O)c4nn(-c5ccc(F)cc5)cc4OC)cc3F)ccnc2cc1OCCCN1CCOCC1             IC50  < 500 nM

Batch request: IC50 for each of the following compounds.
1. COc1cc2c(Oc3ccc(NC(=O)c4nn(C)cc4Br)cc3F)ccnc2cc1OCCCN1CCOCC1
2. CCOc1cn(-c2ccc(F)cc2C)nc1C(=O)Nc1ccc(Oc2ccnc3cc(OCCCN4CCNCC4)c(OC)cc23)c(F)c1
3. COc1cc2nccc(Oc3ccc(N)cc3Cl)c2cc1OC
4. COc1cc2c(Oc3ccc(NC(=O)c4nn(-c5ccc(F)cc5)cc4OC)cc3F)ccnc2cc1OCC1CCNCC1
5. COc1cc2c(Oc3ccc(NC(=O)c4nn(-c5ccc(F)cc5)cc4OCC4CC4)cc3F)ccnc2cc1OCCCN1CCN(C)CC1
6. CCOc1cn(-c2ccc([N+](=O)[O-])cc2)nc1C(=O)Nc1ccc(Oc2ccnc3cc(OC)c(OC)cc23)cn1

1. 500 to 5000 nM
2. < 500 nM
3. > 10000 nM
4. < 500 nM
5. < 500 nM
6. 500 to 5000 nM
